# Tested on: DU-145 (human prostate cancer)
# Assay Name: MTT in vitro cytotoxicity assay, DU-145
# Type: cell-based
# Condition Parameters: DU-145, 48 h, read-out: IC50 DU-145
pIC50: −log10 of the molar value.
This section presents compounds with their documented pIC50 values.
Measure: pIC50

INSERT INTO measurements (compound, target, quantitative_result) VALUES
  ('COc1cc([C@@H]2c3cc4c(cc3[C@@H](NC(=O)c3cn(-c5ccc(C(F)(F)F)cc5)nn3)[C@H]3COC(=O)[C@H]23)OCO4)cc(OC)c1OC [Compound 8n]', 'DU-145 (human prostate cancer)', 6.05),
  ('COc1cc([C@@H]2c3cc4c(cc3[C@@H](NC(=O)c3cn(Cc5ccc(Cl)cc5)nn3)[C@H]3COC(=O)[C@H]23)OCO4)cc(OC)c1OC [Compound 9p]', 'DU-145 (human prostate cancer)', 5.63),
  ('COc1cc([C@@H]2c3cc4c(cc3[C@@H](NC(=O)c3cn(-c5ccccc5)nn3)[C@H]3COC(=O)[C@H]23)OCO4)cc(OC)c1OC [Compound 8a]', 'DU-145 (human prostate cancer)', 5.88),
  ('COc1ccc(Cn2cc(C(=O)N[C@@H]3c4cc5c(cc4[C@@H](c4cc(OC)c(OC)c(OC)c4)[C@H]4C(=O)OC[C@@H]43)OCO5)nn2)cc1 [Compound 9c]', 'DU-145 (human prostate cancer)', 5.75),
  ('COc1cc([C@@H]2c3cc4c(cc3[C@H](O)[C@H]3COC(=O)[C@H]23)OCO4)cc(OC)c1OC [Podophyllotoxin]', 'DU-145 (human prostate cancer)', 5.38),
  ('COc1ccc(-n2cc(C(=O)N[C@@H]3c4cc5c(cc4[C@@H](c4cc(OC)c(OC)c(OC)c4)[C@H]4C(=O)OC[C@@H]43)OCO5)nn2)cc1 [Compound 8c]', 'DU-145 (human prostate cancer)', 6.00),
  ('COc1cc([C@@H]2c3cc4c(cc3[C@@H](NC(=O)c3cn(-c5ccc(Cl)cc5)nn3)[C@H]3COC(=O)[C@H]23)OCO4)cc(OC)c1OC [Compound 8p]', 'DU-145 (human prostate cancer)', 6.15);

* * *

# Tested on: Hela (human cervical cancer)
# Assay Name: MTT in vitro cytotoxicity assay, Hela
# Format: cell-based
# Condition Parameters: Hela, 48 h of drug treatment, average of three individual experiments, read-out: IC50 Hela
Measure: IC50 (nM)

INSERT INTO assay_data (compound, target, quantitative_result) VALUES
  ('COc1cc([C@@H]2c3cc4c(cc3[C@@H](O[C@@H]3O[C@@H]5CO[C@@H](C)O[C@H]5[C@H](O)[C@H]3O)[C@H]3COC(=O)[C@H]23)OCO4)cc(OC)c1O [Etoposide, reference compound]', 'Hela (human cervical cancer)', 2710);

* * *

This section presents compounds with their documented melting point values.
Measure: melting point

INSERT INTO measurements (chemical_structure, result) VALUES
  ('COc1cc([C@@H]2c3cc4c(cc3[C@@H](NC(=O)c3cn(-c5ccccc5)nn3)[C@H]3COC(=O)[C@H]23)OCO4)cc(OC)c1OC', '170 to 172 °C'),
  ('COc1cc(Cn2cc(C(=O)N[C@@H]3c4cc5c(cc4[C@@H](c4cc(OC)c(OC)c(OC)c4)[C@H]4C(=O)OC[C@@H]43)OCO5)nn2)cc(OC)c1OC', '189 to 192 °C'),
  ('COc1cc([C@@H]2c3cc4c(cc3[C@@H](NC(=O)c3cn(-c5cc(OC)c(OC)c(OC)c5)nn3)[C@H]3COC(=O)[C@H]23)OCO4)cc(OC)c1OC', '181 to 183 °C'),
  ('COc1ccc(-n2cc(C(=O)N[C@@H]3c4cc5c(cc4[C@@H](c4cc(OC)c(OC)c(OC)c4)[C@H]4C(=O)OC[C@@H]43)OCO5)nn2)cc1', '195 to 197 °C'),
  ('COc1cc(OC)cc(-n2cc(C(=O)N[C@@H]3c4cc5c(cc4[C@@H](c4cc(OC)c(OC)c(OC)c4)[C@H]4C(=O)OC[C@@H]43)OCO5)nn2)c1', '145 to 148 °C'),
  ('COc1cc([C@@H]2c3cc4c(cc3[C@@H](NC(=O)c3cn(-c5ccc(C(F)(F)F)cc5)nn3)[C@H]3COC(=O)[C@H]23)OCO4)cc(OC)c1OC', '190 to 194 °C');
